- Test system: SF-295 CNS
- Assay Summary: NCI-60 one-dose screen, 48 h (100 = growth as untreated, 0 = no growth, -100 = all killed)
- Measurement Context: 10 µM unless noted
This is part of a sample that, as a whole, favours compounds with a hit. Of some 83,000 tested, about 20% had one in any assay.
Simple rule here: growth less than 50% is class 1, otherwise class 0.

growth strictly < 50% for this compound? CCCCCCNC(=O)Oc1ccc(/C(=C(\C)c2ccccc2)c2ccc(OCCN3CCCCC3)cc2)cc1
class 1

Next up: CC1(C)CC[C@]2(C(=O)O)CC[C@]3(C)C(=CC[C@@H]4[C@@]5(C)Cc6c([nH]c7ccccc67)C(C)(C)[C@@H]5CC[C@]43C)[C@@H]2C1
class 1

Next up: COc1ccc(-c2nc3sccn3c2/C=C/C(=O)c2ccc3c(c2)OCO3)cc1
class 0

Next up: Cc1ccc(C(=O)/C(=C\c2ccc([N+](=O)[O-])cc2)S(=O)Cc2ccc(Cl)cc2)cc1 (configuration not stated)
class 0

Next up: O=C(c1nc2ccccc2[nH]1)C1C(c2ccc(Br)cc2)C2CC3CCCC[C@H]3N2[C@@]12C(=O)Nc1cc(Cl)ccc12 (some centres not stated)
class 1

Next up: CCC(=O)Oc1ccc(/C(=C(\C)c2ccccc2)c2ccc(OCCN3CCCCC3)cc2)cc1
class 0

Next up: CC(=O)c1cc2c(N)c(C(=O)Nc3cccc4ccncc34)sc2nc1C
class 0

Next up: COc1ccc(C(=O)Cn2c(C(=O)c3ccccc3)nc3ccccc32)cc1
class 1
